ASSAYED_TARGET: hSERT (5-HTT) in HEK293-hSERT cells (Homo sapiens, UniProt P31645)
Sequence (P31645 whole entry): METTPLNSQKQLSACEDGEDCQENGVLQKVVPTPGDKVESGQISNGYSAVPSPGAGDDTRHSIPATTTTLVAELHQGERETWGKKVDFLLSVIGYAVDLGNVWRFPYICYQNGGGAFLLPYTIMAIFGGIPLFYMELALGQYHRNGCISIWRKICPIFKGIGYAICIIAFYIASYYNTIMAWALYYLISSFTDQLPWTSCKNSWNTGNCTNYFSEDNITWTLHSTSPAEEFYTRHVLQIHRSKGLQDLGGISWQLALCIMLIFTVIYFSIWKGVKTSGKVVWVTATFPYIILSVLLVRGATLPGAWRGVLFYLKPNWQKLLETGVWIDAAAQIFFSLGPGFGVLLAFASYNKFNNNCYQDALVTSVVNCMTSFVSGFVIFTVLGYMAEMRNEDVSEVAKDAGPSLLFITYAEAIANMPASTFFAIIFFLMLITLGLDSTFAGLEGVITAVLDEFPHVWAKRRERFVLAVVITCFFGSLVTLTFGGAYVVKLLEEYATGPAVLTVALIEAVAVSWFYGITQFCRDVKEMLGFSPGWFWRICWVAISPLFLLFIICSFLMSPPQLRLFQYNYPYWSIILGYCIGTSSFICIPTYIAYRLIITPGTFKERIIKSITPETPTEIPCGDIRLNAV
MEASUREMENT_DESCRIPTION: 5-HTT reuptake activity assay (fluorescence neurotransmitter transporter uptake kit)
RUN_CONDITIONS: serotonin reuptake inhibition
Where a name gives a salt, the structure may show the parent alone.
Examples of compounds with documented IC50 follow.

For orientation, consider the following solved cases.
> print(dat)
                                   compound                            assayed.target  value.measured
1  O=C(O)/C=C\C(=O)O.c1ccc2sc(N3CC4CNCC4C3)cc2c1 (stereo not shown) [Example 22, maleate]  hSERT (5-HTT) in HEK293-hSERT cells (Homo sapiens, UniProt P31645)         < 50 nM
2  O=C(O)/C=C\C(=O)O.c1cc2cc(N3CC4CNCC4C3)ccc2s1 (stereo not shown) [Example 14, maleate]  hSERT (5-HTT) in HEK293-hSERT cells (Homo sapiens, UniProt P31645)         < 10 nM
3  CN1CC2CN(c3ccc4cc(F)ccc4c3)CC2C1.O=C(O)/C=C\C(=O)O (stereo not shown) [Example 30, maleate]  hSERT (5-HTT) in HEK293-hSERT cells (Homo sapiens, UniProt P31645)         < 10 nM

// switching to the query compound
Sample CN1CC2CN(c3cc(F)cc4sccc34)CC2C1 (stereo not shown) [Example 70, oxalate] ; IC50 observed: < 50 nM
